- System: A549
- protocol-summary: NCI tumour cell line growth inhibition, 48 h
The source made the active and inactive calls. No stated cut-off is given here; in the data, active = GI50 up to about 1.1 µM and inactive = higher.
measured-attribute: GI50

# count of solved cases: 3
compound	GI50
O=C1C[S+]([O-])c2ccccc2N1 (centres undefined)	> 100 µM (inactive)
COC(=O)CCC1(C)C2CCC1/C(=N/O)C2 (centres undefined)	> 100 µM (inactive)
CCOC(=O)C(C)c1cc(C2(C)OCCO2)c(C)o1 (centres undefined)	> 100 µM (inactive)

Now consider a different compound.
// GI50 lookup, key: Clc1ccc2oc(CCc3ccccc3)nc2c1
36.6 µM (inactive)

---

- Test system: HOP-92
- protocol-summary: NCI tumour cell line growth inhibition, 48 h
The source made the active and inactive calls. Rule as the data show it: active = GI50 up to about 1.1 µM and inactive = higher.
Lab note: assign the record to one of 1 for active, 0 for inactive

Some solved entries appear below for comparison.
molecule	class-label
CC(C)c1ccc(/C=C/c2cc(C(=O)NNC(=O)NC3CCCCC3)nc(S)n2)cc1	0
CC1=CC(=O)/C(=C/NC(=S)NCc2ccccc2)C(=O)O1	0
O=c1ccn([C@@H]2C=C(CO)[C@@H](O)[C@H]2O)c(=O)[nH]1	0
CC(=O)OC(Cc1ccc2ccccc2n1)(C(F)(F)F)C(F)(F)F	1

Lab note: next molecule to report on.
# fetch the recorded call for CC1(C)C/C(=N/O)c2c(nc3ccc4ccccc4c3c2-c2ccc(Cl)cc2)C1 here
0

---

- Tested on: SK-MEL-2
- protocol-summary: NCI tumour cell line growth inhibition, 48 h
The source made the active and inactive calls. No stated cut-off is given here; in the data, active = GI50 up to about 1.1 µM and inactive = higher.
measured-attribute: GI50

molecule	GI50
COC(=O)CCC1(C)C2CCC1/C(=N/O)C2 (stereo not given)	> 100 µM (inactive)

// GI50 lookup, key: CN(C)C(=S)/N=c1\ss/c(=N\C(=S)N(C)C)n1-c1cccc(Cl)c1
> 100 µM (inactive)

// GI50 lookup, key: CCCCCCCCCCCCOC(=S)NCCCC
18.7 µM (inactive)

// GI50 lookup, key: COc1cc(OC)c2c3c(OC)cc(OC)c4c(=O)c(O)c(C[C@@H](C)O)c(c5c(C[C@@H](C)O)c(O)c(=O)c1c25)c43
19 µM (inactive)

// GI50 lookup, key: COc1ccc(/N=N/C(C(=O)c2ccccc2)C(=O)c2ccccc2)cc1
21.9 µM (inactive)

// GI50 lookup, key: CCOC(=O)/C(C#N)=C(/NNc1ccccc1)c1ccncc1C(=O)O
> 75.2 µM (inactive)

// GI50 lookup, key: COc1ccc(CCCCNCc2cccc(CNCCCCc3ccc(OC)cc3)c2)cc1
1.91 µM (inactive)

// GI50 lookup, key: CCN(CC)C(=S)SC1C(=O)NC(=O)NC1=O
> 100 µM (inactive)

// GI50 lookup, key: CC(C)(C)OC(=O)NCCCCC(NC(=O)OCc1ccccc1)C(N)=O (stereo not given)
> 100 µM (inactive)

// GI50 lookup, key: N#CC(C(=O)CCCC(=O)Nc1ccccc1[N+](=O)[O-])c1c(Cl)cccc1Cl (stereo not given)
> 100 µM (inactive)

---

- Test system: OVCAR-3
- protocol-summary: NCI tumour cell line growth inhibition, 48 h
Active and inactive are the calls of the source. Rule as the data show it: active = GI50 up to about 1.1 µM and inactive = higher.
Lab note: assign the record to one of active, inactive

Some solved entries appear below for comparison.
molecule	class-label
N#CC(C(=O)CCCC(=O)Nc1ccccc1[N+](=O)[O-])c1c(Cl)cccc1Cl (stereo not given)	inactive
CCCCCCCCCCCCCCCC(=O)N[C@H]1CCc2cc(OC)c(OC)c(OC)c2-c2ccc(SC)c(=O)cc21	active
CCOC(=O)C(C(N)=O)C1=Nc2cc([N+](=O)[O-])ccc2N/C1=C\C(=O)c1ccc(C)cc1 (stereo not given)	inactive
Cc1c(OCCCOc2ccc3c(=O)cc(-c4ccccc4)oc3c2C)ccc2c(=O)cc(-c3ccccc3)oc12	inactive
CC(=O)N1C(Nc2ccccc2)CCN1c1ccccc1 (stereo not given)	inactive

# fetch the recorded call for CC(C)CCC[C@@H](C)[C@H]1CC[C@H]2C3=C[C@H](OS(=O)(=O)O)[C@@]4(O)C[C@@H](O)CC[C@]4(C)[C@@]3(O)CC[C@]12C here
inactive

# fetch the recorded call for CCN(CC)C(=S)SC1C(=O)NC(=O)NC1=O here
inactive

# fetch the recorded call for COc1cc(S(=O)(=O)Nc2nc(-c3ccc(N)cc3)cs2)ccc1Cl here
inactive
